measured_on: STAU1 dsRBD3 (Homo sapiens, UniProt O95793-2 102-181)
Sequence (O95793 183-262): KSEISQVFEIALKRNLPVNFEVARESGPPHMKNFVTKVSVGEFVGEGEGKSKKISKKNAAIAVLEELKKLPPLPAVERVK
measurement_notes: fluorescence anisotropy

| binder | Kd [nM] |
| --- | --- |
| GGCAGAAGCUGCCUCUUCGGAGGCAGUUUCUGCC (structured_RNA) [top 2/3 ARF1 SBS (sARF1 SBS)] | 41.4 |
